Assay: Phase I plasma pharmacokinetics
Assay type: in vivo, human
Details: human, plasma, iv, 1.375 mg/kg, Cohort 3: 1.375 mg/kg; N = 3; 90-min IV infusion; Cycle 1 Day 1; plasma LC-MS; read-out: AUCtau, Mean (SD)
Ends that are not written are not given here.
Readout label: AUC(0-t)
Form entry: enter the amount, then its unit.

The measured AUC(0-t) associated with KEFLHPSKVDLPR [SOR-C13] reads 256 ng·h/mL

###

Experiment: Phase I plasma pharmacokinetics
Format: in vivo, human
Conditions: human, plasma, iv, 4.13 mg/kg, Cohort 5: 4.13 mg/kg; N = 3; 90-min IV infusion; Cycle 1 Day 1; plasma LC-MS; read-out: Peak plasma concentration, Median
Ends that are not written are not given here.
Readout label: Cmax

The value of Cmax measured for the sequence KEFLHPSKVDLPR [SOR-C13] turned out to be 42 ng/mL

###

Test: Phase I plasma pharmacokinetics
Format: in vivo, human
Conditions: human, plasma, iv, 2.75 mg/kg, Cohort 4: 2.75 mg/kg; N = 6; 90-min IV infusion; Cycle 1 Day 3; plasma LC-MS; read-out: Peak plasma concentration, Median
Ends that are not written are not given here.
Readout label: Cmax (ng/mL)
// return numeric value only (unit: ng/mL, not printed)

KEFLHPSKVDLPR [SOR-C13] has a reported Cmax of 265

###

Assay: Phase I plasma pharmacokinetics
Assay type: in vivo, human
Details: human, plasma, iv, 6.2 mg/kg, Cohort 6: 6.2 mg/kg; N = 6; 90-min IV infusion; Cycle 1 Day 3; plasma LC-MS; read-out: Time to peak plasma concentration, Median
Ends that are not written are not given here.
Readout label: Tmax (min)
Expressed in min, but write only the number.

Looking up KEFLHPSKVDLPR [SOR-C13] , I found its Tmax recorded as 9.9

###

Assay: Phase I plasma pharmacokinetics
Type: in vivo, human
Details: human, plasma, iv, 4.13 mg/kg, Cohort 5: 4.13 mg/kg; N = 3; 90-min IV infusion; Cycle 1 Day 8; plasma LC-MS; read-out: Time to peak plasma concentration, Median
Ends that are not written are not given here.
Readout label: Tmax (min)
Kindly answer with a numeric value in min, unit omitted.

According to the records, this sequence KEFLHPSKVDLPR [SOR-C13] displays Tmax of 4.8

###

Experiment: Phase I plasma pharmacokinetics
Type: in vivo, human
Conditions: human, plasma, iv, 6.2 mg/kg, Cohort 6: 6.2 mg/kg; N = 6; 90-min IV infusion; Cycle 1 Day 1; plasma LC-MS; read-out: AUCtau, Mean (SD)
Ends that are not written are not given here.
Readout label: AUC(0-t) (ng·h/mL)
A number alone suffices; assume ng·h/mL.

The sequence listed as KEFLHPSKVDLPR [SOR-C13] has a reported AUC(0-t) of 1130

###

Assay: Phase I plasma pharmacokinetics
Type: in vivo, human
Details: human, plasma, iv, 6.2 mg/kg, Cohort 6: 6.2 mg/kg; N = 6; 90-min IV infusion; Cycle 1 Day 3; plasma LC-MS; read-out: AUCtau, Mean (SD)
Ends that are not written are not given here.
Readout label: AUC(0-t)
Could you write the number and then its unit?

Lab note: KEFLHPSKVDLPR [SOR-C13] gave AUC(0-t) of 1100 ng·h/mL

###

Test: Phase I plasma pharmacokinetics
Type: in vivo, human
Conditions: human, plasma, iv, 4.13 mg/kg, Cohort 5: 4.13 mg/kg; N = 3; 90-min IV infusion; Cycle 1 Day 10; plasma LC-MS; read-out: Time to peak plasma concentration, Mean (SD)
Ends that are not written are not given here.
Readout label: Tmax (min)
Give the quantity in min, number only.

Reported Tmax for KEFLHPSKVDLPR [SOR-C13] was 21.6

###

Test: Phase I plasma pharmacokinetics
Format: in vivo, human
Settings: human, plasma, iv, 1.375 mg/kg, Cohort 3: 1.375 mg/kg; N = 3; 90-min IV infusion; Cycle 1 Day 3; plasma LC-MS; read-out: AUCtau, Median
Ends that are not written are not given here.
Readout label: AUC(0-t) (ng·h/mL)
Entry rule: numbers only, all in ng·h/mL.

Reported AUC(0-t) for KEFLHPSKVDLPR [SOR-C13] was 168

###

Assay: Phase I plasma pharmacokinetics
Type: in vivo, human
Details: human, plasma, iv, 4.13 mg/kg, Cohort 5: 4.13 mg/kg; N = 3; 90-min IV infusion; Cycle 1 Day 1; plasma LC-MS; read-out: AUCtau, Median
Ends that are not written are not given here.
Readout label: AUC(0-t) (ng·h/mL)
State the answer as a number, implicitly in ng·h/mL.

The sequence listed as KEFLHPSKVDLPR [SOR-C13] has a reported AUC(0-t) of 23.4

###

Assay: Phase I plasma pharmacokinetics
Format: in vivo, human
Conditions: human, plasma, iv, 6.2 mg/kg, Cohort 6: 6.2 mg/kg; N = 6; 90-min IV infusion; Cycle 1 Day 1; plasma LC-MS; read-out: Time to peak plasma concentration, Mean (SD)
Ends that are not written are not given here.
Readout label: Tmax (min)
Report the figure in min without appending any unit label.

Documented Tmax of KEFLHPSKVDLPR [SOR-C13] : 56.6

###

Assay: Phase I plasma pharmacokinetics
Format: in vivo, human
Conditions: human, plasma, iv, 2.75 mg/kg, Cohort 4: 2.75 mg/kg; N = 6; 90-min IV infusion; Cycle 1 Day 10; plasma LC-MS; read-out: Time to peak plasma concentration, Median
Ends that are not written are not given here.
Readout label: Tmax (min)
Expressed in min, but write only the number.

# Tmax of KEFLHPSKVDLPR [SOR-C13] = 30

###

Assay: Phase I plasma pharmacokinetics
Type: in vivo, human
Details: human, plasma, iv, 4.13 mg/kg, Cohort 5: 4.13 mg/kg; N = 3; 90-min IV infusion; Cycle 1 Day 1; plasma LC-MS; read-out: AUCtau, Mean (SD)
Ends that are not written are not given here.
Readout label: AUC(0-t) (ng·h/mL)
Give just the numeric value; ng·h/mL need not be written.

Field AUC(0-t) (entry KEFLHPSKVDLPR [SOR-C13] ) reads 78.4

###

Assay: Phase I plasma pharmacokinetics
Type: in vivo, human
Settings: human, plasma, iv, 2.75 mg/kg, Cohort 4: 2.75 mg/kg; N = 6; 90-min IV infusion; Cycle 1 Day 8; plasma LC-MS; read-out: Time to peak plasma concentration, Median
Experimental: Blood samples were taken on Days 1, 3, 8 and 10 of Cycle 1 to assess the pharmacokinetic (PK) profile of SOR-C13 at the various doses used. Plasma samples for the IV 20 min infusion were taken at pre-infusion, 5, 15 min after the start of infusion and post-infusion at 2, 5, 10 and 30 min and 1, 4 h. Plasma samples for SOR-C13 analysis for the 90 min infusion were taken pre-infusion, at 5, 15 and 45 min after the start of infusion, and at 2, 5, 10 and 30 min post-infusion. […]
Ends that are not written are not given here.
Readout label: Tmax (min)
Provide the reading as a plain figure in min.

Per the records, this sequence ( KEFLHPSKVDLPR [SOR-C13] ) has Tmax equal to 15

###

Test: Phase I plasma pharmacokinetics
Format: in vivo, human
Conditions: human, plasma, iv, 1.375 mg/kg, Cohort 3: 1.375 mg/kg; N = 3; 90-min IV infusion; Cycle 1 Day 1; plasma LC-MS; read-out: Time to peak plasma concentration, Mean (SD)
Ends that are not written are not given here.
Readout label: Tmax (min)
// note: answer is a bare numeric in min

The value of Tmax measured for the sequence KEFLHPSKVDLPR [SOR-C13] turned out to be 31.6

###

Experiment: Phase I plasma pharmacokinetics
Type: in vivo, human
Settings: human, plasma, iv, 6.2 mg/kg, Cohort 6: 6.2 mg/kg; N = 6; 90-min IV infusion; Cycle 1 Day 3; plasma LC-MS; read-out: Peak plasma concentration, Median
Ends that are not written are not given here.
Readout label: Cmax

The sequence KEFLHPSKVDLPR [SOR-C13] showed Cmax equal to 843 ng/mL

###

Experiment: Phase I plasma pharmacokinetics
Type: in vivo, human
Details: human, iv; patients, 90-min infusion, plasma LC-MS; read-out: elimination half-life (Thalf), estimated overall
Ends that are not written are not given here.
Readout label: half-life

half-life in this record for KEFLHPSKVDLPR [SOR-C13] : < 5 min

###

Experiment: Phase I plasma pharmacokinetics
Format: in vivo, human
Settings: human, plasma, iv, 1.375 mg/kg, Cohort 3: 1.375 mg/kg; N = 3; 90-min IV infusion; Cycle 1 Day 3; plasma LC-MS; read-out: Peak plasma concentration, Median
Ends that are not written are not given here.
Readout label: Cmax
Record the result as a number with its unit.

Query KEFLHPSKVDLPR [SOR-C13] yields Cmax of 0.16 µg/mL

###

Assay: Phase I plasma pharmacokinetics
Type: in vivo, human
Settings: human, plasma, iv, 4.13 mg/kg, Cohort 5: 4.13 mg/kg; N = 3; 90-min IV infusion; Cycle 1 Day 10; plasma LC-MS; read-out: AUCtau, Mean (SD)
Ends that are not written are not given here.
Readout label: AUC(0-t) (ng·h/mL)
Number only, in ng·h/mL; omit the unit.

Value of AUC(0-t) reported for the sequence KEFLHPSKVDLPR [SOR-C13] is 273
